target: S. pyogenes SKKanGAS, kanamycin survival, BacTiterGlo, 6 h; assay: S. pyogenes SKKanGAS kanamycin growth inhibitors – SKKanGAS strain, luminescence, dose confirmation, streptokinase promoter inhibitor project, dose response (AID 1902);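 further: lower survival reflects blocked streptokinase promoter driving kanamycin resistance gene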
Active and inactive are the calls of the source.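 How the source made its calls: active means EC50 no more than a set limit of log units above the highest dose; inactive means the rest.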
Labels: 1.0 for active, 0.0 for inactive

compound	label
O=C(Cc1cccs1)NNC(=S)NC(=O)c1ccccc1	1.0
Cc1cccc2sc(NNC(=O)c3ccc(S(=O)(=O)N4CCc5ccccc5C4)cc3)nc12	1.0
Cc1ccc(/C=C/C(=O)c2ccccc(=O)c2O)cc1C	1.0
COc1ccc(C(=O)NNC(=S)NC(=O)/C=C/c2cccs2)cc1	1.0
Cc1cccc(Nc2nnc(-c3ccc(N4CCOCC4)c([N+](=O)[O-])c3)c3ccccc23)c1	1.0
Oc1ccccc1N=Cc1c(O)ccc2oc3c(c12)CCCC3	1.0
COc1ccc(Cl)cc1C(=O)NNC(=S)NC(=O)c1cc(-c2ccccc2)nc2ccccc12	1.0
CCc1cccc2sc(N3CCN(C(=O)c4ccc([N+](=O)[O-])o4)CC3)nc12	1.0
Cc1c(N/N=C(\C#N)C(=O)c2ccccc2)c(=O)n(-c2ccccc2)n1C	1.0
COc1ccc(/C=C2/C(=O)N(c3nc4ccccc4s3)N=C2CSc2ccc(Cl)cc2)cc1	1.0
CC1CCN(c2nc(N3CCCCC3)nc(N3CCCCC3)n2)CC1	1.0
Oc1ccc(Br)cc1/C=N/Nc1ncc(-c2ccccc2)cn1	1.0
Cc1c(-c2cccc(Cl)c2)nc2ccccc2c1C(=O)OC/C(O)=C(\C#N)c1nc2ccccc2[nH]1	1.0
CCn1nc(-c2ccccc2)nc2c(=O)n(C)c(=O)nc1-2	1.0
O=C1C(Nc2ccc(O)cc2)=C/C(=N/S(=O)(=O)c2cccs2)c2ccccc21	1.0
C/C(=N\NC(=O)c1ccc(Cl)c(Cl)c1)c1ccc(Br)s1	1.0
Cc1nnc(SCC2=C(C(=O)O)N3C(=O)C(NC(=O)c4cc(F)c(F)cc4Cl)C3SC2)s1 (stereo unspecified)	1.0
CN1C(=O)/C(=C/c2ccc(C(F)(F)F)cc2)Sc2ccc(C(=O)N3CCN(c4ccccn4)CC3)cc21	1.0
O=C(N/N=C/c1cc(Br)ccc1O)c1ccncc1	1.0
CC[C@H]1OC(=O)[C@H](C)[C@@H](O[C@H]2C[C@@](C)(OC)[C@@H](O)[C@H](C)O2)[C@H](C)[C@@H](O[C@@H]2O[C@H](C)C[C@H](N(C)C)[C@H]2O)[C@](C)(O)C[C@@H](C)C(=O)[C@H](C)[C@@H](O)[C@]1(C)O	1.0
C/C(CC(=O)Nc1ccc(Cl)c(C(F)(F)F)c1)=N\NC(=O)c1ccccc1O	1.0
COc1ccc(-c2cc(C(F)(F)F)nc(NCc3cccs3)n2)cc1	1.0
COc1ccc(-c2noc(-c3ccccc3-c3ccccc3)n2)cc1	1.0
CC1(C(=O)NC(=S)NNC(=O)c2ccncc2)CCCCC1	1.0
O=C(NCc1nc(-c2ccc(C(F)(F)F)cc2)no1)Nc1cc(Cl)cc(Cl)c1	1.0
Cc1ccc(NNC(=O)C2CCC2)cc1C	0.0
O=C(CNC(=O)c1ccccc1Br)N/N=C\c1cc([N+](=O)[O-])cc(Br)c1O	1.0
Cc1ccc(NC(=S)NC2CCSc3ccccc32)cc1C (stereo unspecified)	1.0
COc1ccc(/C=C/c2ccc3cccc(O)c3n2)c(OC)c1OC	1.0
COc1c(N2CCN(C(=S)Nc3ccc(F)cc3)C(C)C2)c(F)cc2c(=O)c(C(=O)O)cn(C3CC3)c12 (stereo unspecified)	1.0
Cc1ccc2nc(Nc3nc(-c4ccccc4)cc(=O)[nH]3)nc(C)c2c1	1.0
COc1ccc(OC)c(C2C=C(C34CC5CC(CC(C5)C3)C4)NC(=S)N2)c1 (stereo unspecified)	1.0
Cc1cc(C)c(-c2noc(C(=O)OC(C)(C)C)c2C(=O)OC(C)(C)C)c(C)c1	1.0
CC1=C(C#N)c2nc(N)c(C#N)c(C)c2/C1=C\c1ccc(C)cc1	1.0
Brc1cc(-c2ccccc2)nc(-c2ccccc2)n1	1.0
COc1ccc(Br)cc1/C=C/c1ccc2cccc(O)c2n1	1.0
COc1ccc(C(=O)OCC(=O)Nc2nnc(-c3ccccc3)o2)cc1	1.0
Cc1[nH]n(-c2ccc(Cl)cc2)c(=O)c1/C=N/n1c(C)nc2ccccc2c1=O	1.0
CCc1ccc2nc(N3C(=O)C(O)=C(C(=O)c4ccco4)C3c3cccs3)sc2c1 (stereo unspecified)	1.0
Cc1ccccc1-c1cc(-c2ccccc2O)n[nH]1	1.0
COc1ccc(NS(=O)(=O)c2ccc3ccccc3c2)c2ncccc12	1.0

---

We begin with a simple list: items and their reported EC50.
molecular target: S. pyogenes SKKanGAS, kanamycin survival, BacTiterGlo, 6 h; assay: S. pyogenes SKKanGAS kanamycin growth inhibitors – SKKanGAS strain, luminescence, dose confirmation, streptokinase promoter inhibitor project, dose response (AID 1902);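 further: lower survival reflects blocked streptokinase promoter driving kanamycin resistance gene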
measured.parameter: EC50

In [3]: df
Out[3]:
                                    molecule    result
 0  COCCOC(=O)c1c(C)nc(SCC(=O)Nc2ccc(C)cc2)c(C#N)c1-c1ccco1   6.68 µM
 1             O=C(Nc1nc(-c2ccccn2)cs1)C1CC1   1.33 µM
 2      Cc1cc(N2CCC(C)CC2)nc(-n2nc(C)cc2C)n1   7.73 µM
 3  CN=C(Nc1cc(Cl)ccc1Cl)SC1CC(=O)N(c2ccc(C(=O)OC)cc2)C1=O (configuration not stated)    7.4 µM
 4          CCCSc1cc(N2CCCC2)nc(-c2ccccc2)n1    6.8 µM
 5  Cc1cc(C)c2c(n1)sc1c(=O)n(CC(=O)c3ccccc3)cnc12   1.55 µM
 6  C/C(=N/Nc1cc(-c2ccccc2)nc(-c2ccccc2)n1)c1ccc(O)cc1   2.08 µM
 7     COc1cccc(NC(=O)Nc2nc(SC(C)(C)C)ns2)c1   8.16 µM
 8  Nc1nc(Nc2ccc(Cl)cc2)nc(NCc2ccco2)c1[N+](=O)[O-]   6.56 µM
 9  O=C(NC(Cc1c[nH]c2ccccc12)C(=O)N/N=C/c1cccc2ccccc12)c1cccs1 (configuration not stated)   5.37 µM
10  O=C(Nc1cccc(-c2csc(Nc3cccc(C(F)(F)F)c3)n2)c1)c1ccccc1   4.33 µM
11  CC(C)Oc1ccc(C(=O)Nc2nnc(C3=COCCO3)o2)cc1  0.794 µM
12  CCOC(=O)C1=C(O)c2ccccc2C(=O)/C1=C\c1ccc(CC)cc1   8.49 µM
13     O=C(N/N=C/c1c(O)ccc2ccccc12)Nc1ccccc1   7.74 µM
14  Cc1cc(SCC(=O)c2ccc(O)c(O)c2)n2nc(C)c(-c3ccccc3)c2n1   5.05 µM
15  N#C/C(=C(/O)c1ccc([N+](=O)[O-])o1)c1nc2ccccc2[nH]1   2.05 µM
16            Oc1c(CN2CCCCC2)cc(Br)c2cccnc12   1.12 µM
17  Fc1ccc(Cn2cccc2C2=NC(c3ccccc3)CO2)cc1 (configuration not stated)   7.34 µM
18        O=C(NC(=S)NNC(=O)c1ccccc1O)c1ccco1   3.06 µM
19  O=C(O)CN1C(=O)/C(=C\c2cc(Br)ccc2OCc2ccc(Cl)cc2)SC1=S   1.56 µM
20         Cc1ccccc1OCC(=O)Nc1ccccc1N1CCCCC1   8.71 µM
21  Cc1nn(-c2ccccc2)c(C)c1/C=N/NC(=O)c1cc(-c2ccc(Cl)s2)[nH]n1    5.8 µM

---

biological target: S. pyogenes SKKanGAS, kanamycin survival, BacTiterGlo, 6 h; test: S. pyogenes SKKanGAS kanamycin growth inhibitors – SKKanGAS strain, luminescence, dose confirmation, streptokinase promoter inhibitor project, dose response (AID 1902);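 further: lower survival reflects blocked streptokinase promoter driving kanamycin resistance gene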
Active and inactive are the calls of the source.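 How the source made its calls: active means EC50 no more than a set limit of log units above the highest dose; inactive means the rest.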
measured.parameter: EC50

>>> df
                            chemical_string  measured_parameter              result
0  CC(=O)c1cccc2c(O)c(C3=Nc4ccccc4C3=O)[nH]c12                EC50             6.32 µM
1           O=C(Nc1cccnc1)Nc1cc(Cl)cc(Cl)c1                EC50              8.7 µM
2         O=[N+]([O-])c1cc(Cl)c(O)c2ncccc12                EC50            0.782 µM
3    COc1ccc(/C=C/c2ccc3c(Br)ccc(O)c3n2)cc1                EC50            0.785 µM
4  CC(C)OC(=O)c1cccnc1N1CCN(c2cccc(Cl)c2)CC1                EC50             4.36 µM
5  O=S(=O)(NC(=NCc1ccccc1)c1ccccc1)c1ccc(Br)cc1                EC50  > 15 µM (inactive)
